target: ArntbHLH (Homo sapiens (isoform variant 3), UniProt P27540-2 65-130); assay: fluorescence anisotropy; Buffer C (no additives, 1.0 ug/mL poly dI-dC); single isotherm, plateau not reached; Hill ~2; Buffer B: 100 mM Tris pH 7.4, 150 mM NaCl, 1 mM EDTA, 200 mM guanidine-HCl, 20% glycerol, 0.1 mg/mL acetylated BSA, 100 uM bp calf thymus DNA; 1 nM duplex; overnight 4 C then 22 C. Buffer C: 100 mM Tris pH 7.4, 150 mM NaCl, 1 mM EDTA, 1.0 ug/mL poly dI-dC. Buffer A: phosphate pH 7.4, 150 mM NaCl, …; details: protein: recombinant; chain copies: 2; label: 5' 6-FAM on one strand; 24-mer duplex
Sequence (P27540 other isoform, or with tags, fused parts or gaps): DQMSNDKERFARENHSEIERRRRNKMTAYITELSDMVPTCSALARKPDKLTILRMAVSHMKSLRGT
pKd: −log10 of the molar value.
assay_readout: pKd

Please look up its pKd: E-box 24-mer duplex (dsDNA) DNA 1: TGCAGGAATCACGTGATGAAGGTT DNA 2: AACCTTCATCACGTGATTCCTGCA
~6.46
